# TGI listing for each entry below
System: MDA-MB-435
Experiment: NCI tumour cell line growth inhibition, 48 h

compound | value.comparator | TGI / µM
COc1cc2oc(-c3ccc(O)cc3)cc(=O)c2c(OC)c1O | > | 100
CON(C(=O)OC(C)(C)C)c1ccccc1 | > | 100
O=C(Nc1nc(-c2ccccc2Cl)cs1)c1cc(-c2ccc(Cl)cc2)nc2ccc(Cl)cc12 | = | 4.72
N#CCN1CCCN(CC#N)CCN(CC#N)CCCN(CC#N)CC1 | > | 100
COc1cc(/C=C/c2ccc(S(N)(=O)=O)cc2)cc(OC)c1 | = | 40
O=C1C=CC(=O)[C@H]2C3C=CC(C4C3C3(Cl)C(Cl)=C(Cl)[C@]4(Cl)C3(Cl)Cl)[C@@H]12 (some centres undefined) | = | 7.02
O=C(O)c1c[nH]c2c(ccc3[nH]cc(C(=O)O)c(=O)c32)c1=O | > | 100
Nc1nc(N)c2nc(CNc3ccc(C(=O)NC(CCNC(=O)c4ccccc4C(=O)O)C(=O)O)cc3)cnc2n1 (centres undefined) | > | 100
O=C1c2c(F)c(F)c(F)c(F)c2SC2=Nc3cccc4cccc(c34)N12 | = | 12.8

----------
Test system: EKVX NSCLC
Test: NCI tumour cell line growth inhibition, 48 h
Known GI50 of a selection of compounds

compound | GI50
Cn1cc(-c2ccc3nnc(C(F)(F)c4ccc5ncccc5c4)n3n2)cn1 | > 83.3 µM
COc1cc(OC)c(/C=C/C(=O)c2c(O)cc(OC)c(C3CCN(C)CC3)c2OC)c(OC)c1 | 1.12 µM
COc1cc(-c2ccc(=O)oc2C#Cc2ccccc2)cc(OC)c1OC | 83.4 µM
O=C1Nc2c(ccc(Cl)c2Cl)/C1=C\c1cc(C(F)(F)F)cc(C(F)(F)F)c1 | 1.93 µM
COc1ccc2c(c1)C(=O)c1c-2c(OCCN2CCCCC2)nc2ccc(OC)cc12 | 1 µM
CS(=O)(=O)c1ccc(-c2cnc(NCc3ccco3)n3cnnc23)cc1 | > 100 µM
N/C(=N\C(N)=N\c1nc2ccccc2s1)c1ccnc(Br)c1 | 30.4 µM
COc1cc(O)c2c(=O)c(OC)c(-c3ccc(OC)c(OC)c3)oc2c1.[Sn] | > 100 µM
C=CCCCC(O)c1ccc(C(O)c2cnc3ccccc3c2)o1 (stereo not given) | 19.2 µM
NC(CS)C(=O)NCCNc1ccc(NCCNC(=O)C(N)CS)c2c1C(=O)c1c(O)ccc(O)c1C2=O (stereo not given) | 0.0538 µM

----------
Tested on: IGROV1 ovarian
Test: NCI tumour cell line growth inhibition, 48 h

compound | measurement.target | value.comparator | TGI / µM
CCOC(=O)c1cc([N+](=O)[O-])cc([N+](=O)[O-])c1Sc1ncnc2nc[nH]c12 | IGROV1 ovarian | = | 6.13
Brc1ccc(C[N+]23CN4CN(CN(C4)C2)C3)cc1 | IGROV1 ovarian | > | 100
O=C(c1cccnc1)N1N=C(c2ccc3c(c2)OCO3)CC1(O)c1cc(F)c(Cl)cc1Cl (stereo not given) | IGROV1 ovarian | = | 34.1
CCN(CC)CCNC(=O)C(Cl)=C1C(Cl)=C(Cl)C(Cl)=C1Cl | IGROV1 ovarian | > | 100
CSCC(COC(C)=O)(CSC)c1ccncc1 | IGROV1 ovarian | > | 100

----------
Tested on: SN12C renal
Test: NCI tumour cell line growth inhibition, 48 h
readout: TGI

compound | measurement.target | result
Clc1ccc(Nc2nnc(CNc3ccc(-c4nnc(Nc5ccc(Cl)cc5)o4)cc3)o2)cc1 | SN12C renal | 36.9 µM
Cc1cc2c(cc1-c1cc3c(cc1C)C(C(C)C)=C(O)C(=O)/C3=C\Nc1ccccn1)/C(=C/Nc1ccccn1)C(=O)C(O)=C2C(C)C | SN12C renal | > 100 µM
O=C(c1ccccc1)c1c2n(c3c1cc(O)c1ccccc13)CCN2 | SN12C renal | 4.21 µM
Nc1nc(N)c2nc(CNc3ccc(C(=O)NC(CCNC(=O)c4ccccc4C(=O)O)C(=O)O)cc3)cnc2n1 (stereo not given) | SN12C renal | > 100 µM
N/C(=N\C(N)=N\c1nc2ccccc2s1)c1ccnc(Br)c1 | SN12C renal | > 100 µM
O=c1sc(-c2nc3ccccc3[nH]2)c(/N=C/c2ccccc2)n1-c1ccccc1 | SN12C renal | > 100 µM
O=C1NC(Cc2ccccc2)C(=O)N2CCCC12 (stereo not given) | SN12C renal | > 100 µM
Cc1ccnc(NC(c2ccccc2)c2ccc3cccnc3c2O)c1 (stereo not given) | SN12C renal | > 100 µM
CSCC(COC(C)=O)(CSC)c1ccncc1 | SN12C renal | > 100 µM
Brc1ccc(C[N+]23CN4CN(CN(C4)C2)C3)cc1 | SN12C renal | 62.4 µM

----------
Reported TGI values for the following compounds.
Test system: NCI/ADR-RES ovarian
Assay: NCI tumour cell line growth inhibition, 48 h

compound | measurement.target | TGI
CC(C)(/C=N/O)/[N+]([O-])=C/c1ccccc1 | NCI/ADR-RES ovarian | > 100 µM
CC(=O)CC12NC(=O)N(C)N=C1N(C)C(=O)N(C)C2=O (configuration not stated) | NCI/ADR-RES ovarian | > 100 µM
Cc1cc2nc3c4cc([N+](=O)[O-])ccc4n(CCN(C)C)c3nc2cc1C | NCI/ADR-RES ovarian | 4.6 µM
CN(C)C=Nc1c2c(nc3ccccc13)CCCC2 | NCI/ADR-RES ovarian | > 100 µM
Cc1ccc(S(=O)(=O)NCCCSCCO)cc1 | NCI/ADR-RES ovarian | > 100 µM
[Au+].c1c[n-]cn1.c1ccc([PH+](c2ccccc2)c2ccccc2)cc1 | NCI/ADR-RES ovarian | > 100 µM
CCOC(=O)C1=C(C)N(c2ccc(Cl)cc2)C2(O)C=CC(Nc3ccc(Cl)cc3)=C3C(=O)N(c4ccccc4)C(=O)C312 (configuration not stated) | NCI/ADR-RES ovarian | 12.7 µM

----------
Entries annotated with measured TGI
Tested on: DMS 114 small cell lung
Assay: NCI tumour cell line growth inhibition, 48 h
readout: TGI

compound | readout | result
Cn1c2c(c3ccccc31)CCN(CCCN1CCN(c3ccccc3)CC1)C2=O | TGI | 38.1 µM
NNC(=S)NN/C=C(\C=Nc1ccccc1)[N+](=O)[O-] | TGI | > 100 µM
C/C(CC(=O)Nc1ccc([N+](=O)[O-])cc1)=N\Nc1ccc([N+](=O)[O-])cc1[N+](=O)[O-] | TGI | > 100 µM
O=C(NC(Cc1ccccc1)C(=O)CCl)OCc1ccccc1 (stereo not given) | TGI | 4.66 µM
CN(CC1NCCCC1O)C12CC3CC(CC(C3)C1)C2 (stereo not given) | TGI | > 100 µM
COc1ccc(C2NC3=C(CCCC3)N2)cc1 | TGI | > 100 µM
COC(=O)c1cc2c(nc1C)-c1ccccc1OS2(=O)=O | TGI | > 100 µM
O=C1C(Cl)C(c2ccc([N+](=O)[O-])cc2)N1n1cnc2ccccc2c1=O (stereo not given) | TGI | > 100 µM
COc1cc(CC(=O)c2cc3c(cc2-c2ccccc2)OCO3)cc(OC)c1OC | TGI | > 100 µM
Cc1cc(C)c(C2=NO[C@@H]3C(=O)N(c4ccc(Cc5ccc(N6C(=O)[C@H]7C(c8c(C)cc(C)cc8C)=NO[C@H]7C6=O)cc5)cc4)C(=O)[C@H]23)c(C)c1 | TGI | > 100 µM

----------
Recorded TGI for the following compounds
System: M14 melanoma
Experiment: NCI tumour cell line growth inhibition, 48 h
readout: TGI

compound | result
Cc1cc(N)c2cc(NC(=O)Nc3ccc4nc(C)cc(N)c4c3)ccc2n1 | > 100 µM
COc1cc(C2c3cc4c(cc3OC(NNc3ccccc3)C2C)OCO4)cc(OC)c1O (configuration not stated) | 13.3 µM
CC(=O)Nc1ccc(Cc2ccc3[nH]c(=O)cc(C)c3c2)cc1 | > 100 µM
CCOC(=O)[C@H](CO)Nc1c(O)c2c(c(O)c1Cl)C(=O)C=CC2=O | > 10 µM
CCOC(=O)C1=C(O)c2ccc(OC)cc2C(=O)C1=O | > 100 µM
COc1ccc(N2C(=O)C(=O)C3(CCCCC3)C2=O)c(OC)c1OC | > 100 µM
N#CC(C#N)C1CN2CCC1CC2 (configuration not stated) | > 100 µM
CCN(CC)CC(O)c1cc(-c2ccc(Cl)cc2)nc2cc(Cl)ccc12 (configuration not stated) | 3.44 µM
CC(O)c1ccc(C(O)/C(=N\NC(=O)c2ccncc2)c2nc3ccc([N+](=O)[O-])cc3[nH]c2=O)cc1 (configuration not stated) | > 100 µM
CN(CC1NCCCC1O)C12CC3CC(CC(C3)C1)C2 (configuration not stated) | > 100 µM
CCSc1[nH]c(NC(=NC(C)C)NC(=O)c2ccccc2)c(C(N)=O)c1C(N)=O | > 10 µM
COc1ccc(N2C(=O)C3C=CC(n4[nH]c(=O)n(Cc5ccccc5)c4=O)CC3C2=O)cc1 (configuration not stated) | > 100 µM
